The measurements presented in this section are drawn from patent US4695569A.

# System: compound 48/80-induced lethality
# assayText: Protection of rats from compound 48/80-induced lethality
# Type: in vivo, rat (male, inbred Wistar strain)
# particulars: Rattus norvegicus, 4 h, read-out: Compound 48/80 lethality test in rats-ED50
propertyMeasured: ED50 (mg/kg)
Lab book: enter the figure in mg/kg, no units written.

Prompt: Fill in the recorded ED50 for this compound, with compound 48/80-induced lethality as test system: Cc1nc2sccn2c(=O)c1CCN1CCC(Nc2nc3cccnc3n2Cc2ccco2)CC1 [Compound 28]
Completion: 0.04

Prompt: What is its ED50 for compound 48/80-induced lethality? Entry: Cn1cnc2c(NCCN3CCC(Nc4nc5ccccc5n4Cc4ccc(F)cc4)CC3)ncnc21 [Compound 94]
Completion: 0.31

Prompt: compound 48/80-induced lethality / ED50 / Fc1ccc(Cn2c(NC3CCN(CCNc4nc5ncccc5[nH]4)CC3)nc3ccccc32)cc1 [Compound 110] : value?
Completion: 0.16

Prompt: Requested read-out ED50, target or system compound 48/80-induced lethality, entry Cc1nc2scc(C)n2c(=O)c1CCN1CCC(Nc2nc3ccccc3n2Cc2ccco2)CC1 [Compound 9]
Completion: 0.08
